Biological target: Ephrin type-B receptor 2 (Homo sapiens) (UniProt P29323)
Sequence (whole entry): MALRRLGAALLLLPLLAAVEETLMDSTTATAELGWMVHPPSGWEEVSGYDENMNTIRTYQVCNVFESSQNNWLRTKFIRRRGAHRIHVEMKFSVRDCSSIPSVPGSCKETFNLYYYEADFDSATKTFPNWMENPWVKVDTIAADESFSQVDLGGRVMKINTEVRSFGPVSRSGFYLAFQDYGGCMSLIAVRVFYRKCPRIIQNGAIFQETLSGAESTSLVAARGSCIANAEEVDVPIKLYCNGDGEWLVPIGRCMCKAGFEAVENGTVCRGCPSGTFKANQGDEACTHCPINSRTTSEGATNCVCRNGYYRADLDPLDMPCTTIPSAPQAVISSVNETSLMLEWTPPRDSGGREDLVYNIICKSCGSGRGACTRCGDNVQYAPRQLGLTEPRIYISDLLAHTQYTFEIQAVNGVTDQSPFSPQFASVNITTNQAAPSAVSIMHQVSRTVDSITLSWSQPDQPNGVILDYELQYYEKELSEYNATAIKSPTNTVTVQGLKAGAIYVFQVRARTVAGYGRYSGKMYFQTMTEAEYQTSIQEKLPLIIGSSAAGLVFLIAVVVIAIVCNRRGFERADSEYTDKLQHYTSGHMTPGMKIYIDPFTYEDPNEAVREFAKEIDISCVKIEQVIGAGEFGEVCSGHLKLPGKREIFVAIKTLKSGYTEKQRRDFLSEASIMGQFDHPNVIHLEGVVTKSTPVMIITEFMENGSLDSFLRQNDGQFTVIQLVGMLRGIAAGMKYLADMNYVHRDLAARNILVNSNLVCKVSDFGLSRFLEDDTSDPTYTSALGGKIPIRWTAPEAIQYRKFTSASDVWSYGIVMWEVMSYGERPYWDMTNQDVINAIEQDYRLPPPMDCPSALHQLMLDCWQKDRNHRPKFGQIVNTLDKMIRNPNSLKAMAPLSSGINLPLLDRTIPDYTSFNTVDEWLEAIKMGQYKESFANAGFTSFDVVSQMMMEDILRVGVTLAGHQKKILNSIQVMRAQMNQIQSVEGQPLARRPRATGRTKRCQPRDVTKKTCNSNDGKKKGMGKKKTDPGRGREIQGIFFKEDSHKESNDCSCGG
Experiment: Inhibition of EPHB2 (unknown origin) at 0.5 uM relative to control
Provide the recorded inhibition for the entries that follow.
Answer format: numeric, % implied, no suffix.

Input: Query inhibition for `CNC(=O)c1cc(Oc2ccc(NC(=O)c3nc(S(C)(=O)=O)sc3-c3ccc(F)cc3)cc2)ccn1`
Output: 27

Input: Query inhibition for `CNC(=O)c1cc(Oc2ccc(NC(=O)c3nc(NC)sc3-c3ccc(F)cc3)cc2)ccn1`
Output: 51

Input: Query inhibition for `CNC(=O)c1cc(Oc2ccc(NC(=O)c3nc(SC)[nH]c3-c3ccc(F)cc3)cc2)ccn1`
Output: 93

Input: Query inhibition for `CNC(=O)c1cc(Oc2ccc(NC(=O)c3nc(SC)oc3-c3ccc(F)cc3)cc2)ccn1`
Output: 48

Input: Query inhibition for `CNC(=O)c1cc(Oc2ccc(NC(=O)c3nc(SC)oc3-c3ccc(F)cc3)cc2F)ccn1`
Output: 39

Input: Query inhibition for `CNC(=O)c1cc(Oc2ccc(NC(=O)c3n[nH]nc3-c3ccc(F)cc3)cc2)ccn1`
Output: 35

----------
target: BDNF/NT-3 growth factors receptor (Homo sapiens) (UniProt Q16620); assay: Inhibition of TRKB (unknown origin) at 0.5 uM relative to control
Sequence (Q16620 32-822 limits assumed): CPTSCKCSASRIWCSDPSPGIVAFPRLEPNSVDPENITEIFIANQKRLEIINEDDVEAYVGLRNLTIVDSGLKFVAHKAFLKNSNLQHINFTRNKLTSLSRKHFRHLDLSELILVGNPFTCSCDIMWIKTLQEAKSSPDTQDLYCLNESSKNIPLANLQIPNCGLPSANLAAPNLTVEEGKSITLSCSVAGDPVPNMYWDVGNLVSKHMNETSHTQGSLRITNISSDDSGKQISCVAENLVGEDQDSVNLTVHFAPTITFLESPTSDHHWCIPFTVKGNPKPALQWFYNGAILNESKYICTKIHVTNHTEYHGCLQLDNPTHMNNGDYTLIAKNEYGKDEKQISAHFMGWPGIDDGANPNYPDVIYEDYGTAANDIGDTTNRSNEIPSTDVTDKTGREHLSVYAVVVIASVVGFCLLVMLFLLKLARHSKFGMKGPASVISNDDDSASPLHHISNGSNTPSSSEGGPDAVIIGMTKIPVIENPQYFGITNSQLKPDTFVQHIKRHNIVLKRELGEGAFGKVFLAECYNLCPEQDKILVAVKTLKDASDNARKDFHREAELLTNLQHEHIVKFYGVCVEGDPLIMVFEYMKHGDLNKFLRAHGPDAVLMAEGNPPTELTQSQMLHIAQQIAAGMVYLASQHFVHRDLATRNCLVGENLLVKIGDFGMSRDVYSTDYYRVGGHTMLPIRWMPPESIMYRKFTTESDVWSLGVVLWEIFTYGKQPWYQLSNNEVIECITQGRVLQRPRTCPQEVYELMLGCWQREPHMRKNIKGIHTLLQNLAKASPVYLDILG
Give T when the value for inhibition is at least 50%. Give F when it is less.

Input: Item `CNC(=O)c1cc(Oc2ccc(NC(=O)c3nc(SC)oc3-c3ccc(F)cc3)cc2F)ccn1` with inhibition of 50% or above?
Output: F

Input: Item `CNC(=O)c1cc(Oc2ccc(NC(=O)c3n[nH]nc3-c3ccc(F)cc3)cc2)ccn1` with inhibition of 50% or above?
Output: F

Input: Item `CNC(=O)c1cc(Oc2ccc(NC(=O)c3nc(SC)[nH]c3-c3ccc(F)cc3)cc2)ccn1` with inhibition of 50% or above?
Output: T

Input: Item `CNC(=O)c1cc(Oc2ccc(NC(=O)c3nc(NC)sc3-c3ccc(F)cc3)cc2)ccn1` with inhibition of 50% or above?
Output: T

Input: Item `CNC(=O)c1cc(Oc2ccc(NC(=O)c3nc(SC)oc3-c3ccc(F)cc3)cc2)ccn1` with inhibition of 50% or above?
Output: F

----------
molecular target: Angiopoietin-1 receptor (Homo sapiens) (UniProt Q02763); assay: Inhibition of TIE2 (unknown origin) at 0.5 uM relative to control
Sequence (Q02763 whole entry): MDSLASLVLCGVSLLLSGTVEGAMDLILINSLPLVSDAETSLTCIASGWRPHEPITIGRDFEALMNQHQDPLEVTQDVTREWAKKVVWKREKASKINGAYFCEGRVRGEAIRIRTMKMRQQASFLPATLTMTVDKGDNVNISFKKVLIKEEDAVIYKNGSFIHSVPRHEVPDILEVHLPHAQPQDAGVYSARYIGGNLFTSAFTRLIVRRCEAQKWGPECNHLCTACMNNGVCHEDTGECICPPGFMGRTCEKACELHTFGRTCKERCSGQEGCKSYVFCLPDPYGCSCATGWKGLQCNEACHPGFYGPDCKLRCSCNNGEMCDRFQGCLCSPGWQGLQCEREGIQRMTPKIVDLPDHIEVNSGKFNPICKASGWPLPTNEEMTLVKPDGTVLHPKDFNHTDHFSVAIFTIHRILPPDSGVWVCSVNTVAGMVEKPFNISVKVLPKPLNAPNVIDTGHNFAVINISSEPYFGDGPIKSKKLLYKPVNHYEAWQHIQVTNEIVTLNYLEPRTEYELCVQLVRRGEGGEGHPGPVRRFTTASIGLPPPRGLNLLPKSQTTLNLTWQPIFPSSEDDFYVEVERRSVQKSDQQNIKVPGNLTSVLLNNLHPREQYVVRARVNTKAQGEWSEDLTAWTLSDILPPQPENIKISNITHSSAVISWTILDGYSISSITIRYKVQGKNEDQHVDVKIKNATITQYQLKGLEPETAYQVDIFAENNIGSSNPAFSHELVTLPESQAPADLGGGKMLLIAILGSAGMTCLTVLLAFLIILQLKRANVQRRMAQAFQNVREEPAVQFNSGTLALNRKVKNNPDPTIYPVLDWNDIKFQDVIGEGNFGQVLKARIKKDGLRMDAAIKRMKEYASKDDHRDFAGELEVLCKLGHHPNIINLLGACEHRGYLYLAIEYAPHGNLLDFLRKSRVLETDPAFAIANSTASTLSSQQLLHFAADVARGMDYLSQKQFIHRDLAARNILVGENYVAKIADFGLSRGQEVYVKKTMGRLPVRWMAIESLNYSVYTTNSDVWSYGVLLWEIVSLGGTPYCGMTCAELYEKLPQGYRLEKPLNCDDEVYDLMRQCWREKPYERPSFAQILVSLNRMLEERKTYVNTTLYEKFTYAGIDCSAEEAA
measurementKind: inhibition

Input: Query inhibition for `CNC(=O)c1cc(Oc2ccc(NC(=O)c3nc(S(C)(=O)=O)sc3-c3ccc(F)cc3)cc2)ccn1`
Output: 53%

Input: Query inhibition for `CNC(=O)c1cc(Oc2ccc(NC(=O)c3nc(NC)sc3-c3ccc(F)cc3)cc2)ccn1`
Output: 43%

Input: Query inhibition for `CNC(=O)c1cc(Oc2ccc(NC(=O)c3nc(SC)[nH]c3-c3ccc(F)cc3)cc2)ccn1`
Output: 88%

Input: Query inhibition for `CSc1nc(C(=O)Nc2ccc(Oc3cc4cnn(C)c4cc3Br)cc2)c(-c2ccc(F)cc2)o1`
Output: 25%

----------
Provide the recorded inhibition for the entries that follow.
Target: Ephrin type-A receptor 6 (Homo sapiens) (UniProt Q9UF33)
Sequence (whole entry): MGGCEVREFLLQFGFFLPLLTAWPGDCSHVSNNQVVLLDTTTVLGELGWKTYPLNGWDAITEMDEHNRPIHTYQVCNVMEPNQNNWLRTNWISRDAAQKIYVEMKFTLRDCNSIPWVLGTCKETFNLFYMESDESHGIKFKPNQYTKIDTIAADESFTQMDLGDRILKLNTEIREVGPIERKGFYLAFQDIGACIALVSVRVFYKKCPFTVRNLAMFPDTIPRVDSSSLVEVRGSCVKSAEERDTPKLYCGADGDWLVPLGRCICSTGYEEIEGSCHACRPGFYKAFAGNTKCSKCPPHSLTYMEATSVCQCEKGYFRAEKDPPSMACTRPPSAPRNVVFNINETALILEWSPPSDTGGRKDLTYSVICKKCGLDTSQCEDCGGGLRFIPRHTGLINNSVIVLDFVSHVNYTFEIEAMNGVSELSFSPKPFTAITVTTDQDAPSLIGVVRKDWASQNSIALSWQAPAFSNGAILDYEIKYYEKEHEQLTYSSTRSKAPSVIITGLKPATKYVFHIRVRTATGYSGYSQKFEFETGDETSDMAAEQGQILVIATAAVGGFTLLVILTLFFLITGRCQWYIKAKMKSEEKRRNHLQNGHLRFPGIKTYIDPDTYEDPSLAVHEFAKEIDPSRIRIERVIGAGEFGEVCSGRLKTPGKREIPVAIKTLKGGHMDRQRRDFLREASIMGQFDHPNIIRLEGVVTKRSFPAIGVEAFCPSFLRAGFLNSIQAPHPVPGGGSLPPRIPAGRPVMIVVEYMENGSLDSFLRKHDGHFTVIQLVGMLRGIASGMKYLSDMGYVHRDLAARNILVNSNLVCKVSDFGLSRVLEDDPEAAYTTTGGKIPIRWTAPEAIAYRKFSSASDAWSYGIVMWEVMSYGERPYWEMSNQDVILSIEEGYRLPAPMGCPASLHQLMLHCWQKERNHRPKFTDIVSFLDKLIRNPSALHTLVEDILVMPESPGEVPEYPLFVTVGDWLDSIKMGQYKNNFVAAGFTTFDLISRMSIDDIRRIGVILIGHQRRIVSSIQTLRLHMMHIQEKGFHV
Assay: Inhibition of EPHA6 (unknown origin) at 0.5 uM relative to control
Answer format: numeric, % implied, no suffix.

Input: Query inhibition for `CSc1nc(C(=O)Nc2ccc(Oc3cc4cnn(C)c4cc3Br)cc2)c(-c2ccc(F)cc2)o1`
Output: 19

Input: Query inhibition for `CNC(=O)c1cc(Oc2ccc(NC(=O)c3nc(SC)n(CCN(C)C)c3-c3ccc(F)cc3)cc2)ccn1`
Output: 58

Input: Query inhibition for `CNC(=O)c1cc(Oc2ccc(NC(=O)c3nc(SC)oc3-c3ccc(F)cc3)cc2F)ccn1`
Output: 69

Input: Query inhibition for `CNC(=O)c1cc(Oc2ccc(NC(=O)c3nc(SC)oc3-c3ccc(F)cc3)cc2)ccn1`
Output: 69

Input: Query inhibition for `CNC(=O)c1cc(Oc2ccc(NC(=O)c3n[nH]nc3-c3ccc(F)cc3)cc2)ccn1`
Output: 27

Input: Query inhibition for `CNC(=O)c1cc(Oc2ccc(NC(=O)c3nc(NC)sc3-c3ccc(F)cc3)cc2)ccn1`
Output: 62

Input: Query inhibition for `CNC(=O)c1cc(Oc2ccc(NC(=O)c3nc(C(F)(F)F)sc3-c3ccc(F)cc3)cc2)ccn1`
Output: 67

----------
biological target: Macrophage colony-stimulating factor 1 receptor (Homo sapiens) (UniProt P07333); assay: Inhibition of FMS (unknown origin) at 0.5 uM relative to control
Sequence (P07333 whole entry): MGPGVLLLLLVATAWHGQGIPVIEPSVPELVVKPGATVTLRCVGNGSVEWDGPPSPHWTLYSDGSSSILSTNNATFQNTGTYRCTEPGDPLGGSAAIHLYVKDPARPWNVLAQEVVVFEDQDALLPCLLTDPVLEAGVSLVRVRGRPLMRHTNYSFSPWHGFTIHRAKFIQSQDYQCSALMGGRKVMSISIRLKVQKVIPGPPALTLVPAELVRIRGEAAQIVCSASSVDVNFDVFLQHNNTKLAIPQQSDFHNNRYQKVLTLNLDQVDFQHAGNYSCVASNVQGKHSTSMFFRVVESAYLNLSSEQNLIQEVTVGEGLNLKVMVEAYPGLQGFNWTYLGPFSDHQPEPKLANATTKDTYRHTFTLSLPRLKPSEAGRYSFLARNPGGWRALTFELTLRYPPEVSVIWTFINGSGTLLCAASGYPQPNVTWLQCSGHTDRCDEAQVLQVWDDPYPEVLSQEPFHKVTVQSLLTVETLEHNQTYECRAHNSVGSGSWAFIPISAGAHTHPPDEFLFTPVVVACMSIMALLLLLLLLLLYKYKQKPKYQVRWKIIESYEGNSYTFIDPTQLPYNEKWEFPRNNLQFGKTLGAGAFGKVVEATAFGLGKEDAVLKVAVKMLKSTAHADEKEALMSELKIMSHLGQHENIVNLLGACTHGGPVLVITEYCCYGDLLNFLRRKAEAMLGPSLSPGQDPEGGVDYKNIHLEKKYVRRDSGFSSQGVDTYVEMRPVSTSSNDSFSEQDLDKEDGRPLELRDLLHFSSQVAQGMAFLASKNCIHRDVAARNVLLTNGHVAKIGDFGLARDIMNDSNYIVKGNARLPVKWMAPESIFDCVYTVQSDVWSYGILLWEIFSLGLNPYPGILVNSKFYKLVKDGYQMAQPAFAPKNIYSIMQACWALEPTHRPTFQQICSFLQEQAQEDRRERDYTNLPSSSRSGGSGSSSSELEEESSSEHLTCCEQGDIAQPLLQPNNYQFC
measurementKind: inhibition (%)
Answer format: numeric, % implied, no suffix.

Input: Query inhibition for `CNC(=O)c1cc(Oc2ccc(NC(=O)c3nc(C(F)(F)F)sc3-c3ccc(F)cc3)cc2)ccn1`
Output: 43

Input: Query inhibition for `CNC(=O)c1cc(Oc2ccc(NC(=O)c3n[nH]nc3-c3ccc(F)cc3)cc2)ccn1`
Output: 47

Input: Query inhibition for `CNC(=O)c1cc(Oc2ccc(NC(=O)c3nc(SC)n(CCN(C)C)c3-c3ccc(F)cc3)cc2)ccn1`
Output: 65

Input: Query inhibition for `CNC(=O)c1cc(Oc2ccc(NC(=O)c3nc(S(C)(=O)=O)sc3-c3ccc(F)cc3)cc2)ccn1`
Output: 39

The measurements presented in this section are drawn from ChEMBL document CHEMBL4806968.
